Below, each entry is listed alongside its reported inhibition at 10 µM.
Target: glucosylceramide synthase (Homo sapiens, UniProt Q16739)
Construct: made in house; host or cells: Expi293F cells (transient expression, pcDNA3.3-TOPO vector); microsome fraction used as enzyme source
Sequence (Q16739 whole entry): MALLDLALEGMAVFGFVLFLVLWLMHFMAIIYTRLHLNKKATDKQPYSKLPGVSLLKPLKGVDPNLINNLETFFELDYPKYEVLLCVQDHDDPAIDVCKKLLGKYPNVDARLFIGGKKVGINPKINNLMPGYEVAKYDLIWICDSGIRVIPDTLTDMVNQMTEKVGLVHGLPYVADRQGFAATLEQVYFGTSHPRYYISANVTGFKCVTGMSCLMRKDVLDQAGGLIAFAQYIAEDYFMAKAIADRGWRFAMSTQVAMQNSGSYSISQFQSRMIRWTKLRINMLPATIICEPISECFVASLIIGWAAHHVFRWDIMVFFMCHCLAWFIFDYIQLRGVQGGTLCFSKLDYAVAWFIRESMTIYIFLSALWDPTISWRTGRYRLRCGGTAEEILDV
Experiment: Glucosylceramide synthase (GCS) enzyme assay, microsome fraction, C8 glucosylceramide quantified by Rapidfire MS/MS
Format: biochemical
Conditions: test compound 10 μM; 1.7 μM UDP-glucose, 3 μM C8 ceramide; room temperature 60 min; read-out: GCS enzyme inhibitory rate at 10 μM (%) (% of control)
Procedure: Glucosylceramide Synthase (GCS) Assay In enzyme assay, a microsome fraction obtained by transient expression by Expi293F™ cells (catalog number: A14527, Thermo Fisher Scientific) was used as a glucosylceramide synthase source. […] After the enzymatic reaction, the analysis was performed with Rapidfire MS/MS (API-4000™, SCIEX), and C8 glucosylceramide was quantified to evaluate the inhibitory activity of the test compound against glucosylceramide synthase activity. […]

| compound | inhibition at 10 µM, % |
| --- | --- |
| CC(C)Cn1cc(N2Cc3c(ccnc3-c3ccc(F)cc3OCC(F)(F)F)C2=O)cn1 | 99 |
| O=C1c2ccnc(-c3ccc(F)cc3OCC(F)(F)F)c2CN1c1cnn(CC2(F)COC2)c1 | 95 |
| CC(C)(C#N)COc1cc(F)ccc1-c1nccc2c1CN(c1ccc(OC(F)F)nc1)C2=O | 52 |
| COC(=O)c1ccc(N2CC3=C(OC[C@@H](C)N=C3c3ccccc3OCC(F)(F)F)C2=O)cc1 | 97 |
| Cn1nc(N2Cc3c(ccnc3-c3ccc(F)cc3OCC(F)(F)F)C2=O)cc1OC(F)F | 60 |
| O=C1c2ccnc(-c3ccc(F)cc3OCC(F)(F)F)c2CN1c1ccc(C2(O)COC2)c(F)c1 | 89 |
| O=C1c2ccnc(-c3ccccc3OCC(F)(F)F)c2CN1c1ccc(C(O)C(F)(F)F)nc1 (single isomer, unassigned) [Example 276] | 98 |
| CS(=O)(=O)c1ccc(N2Cc3c(ccnc3-c3ccc(F)cc3OCC(F)(F)F)C2=O)cc1 | 89 |
| O=C1c2ccnc(-c3ccc(F)cc3OCC(F)(F)F)c2CN1c1ccc(C2(O)CCC2)cc1 | 100 |
| CN(C)C(=O)c1ccc(N2Cc3c(ccnc3-c3ccccc3OCC(F)(F)F)C2=O)cc1 | 95 |
| CC(C)(O)c1cc2c(c(-c3ccccc3OCC(F)(F)F)n1)CN(c1ccc(OCC(F)(F)F)cc1)C2=O | 100 |
| O=C1c2ccnc(-c3ccccc3OCC(F)(F)F)c2CN1c1ccc(OC(F)F)nc1 | 100 |
| N#CC1(c2ccc(N3Cc4c(ccnc4-c4ccc(F)cc4OCC(F)(F)F)C3=O)cc2)CC1 | 89 |
| O=C1CC2=C(CN(c3ccc(F)cc3)C2=O)N(c2ccc(F)cc2OCC(F)(F)F)N1 | 65 |
| CC(C)(O)c1ccc(N2Cc3c(ccnc3-c3ccc(F)cc3OCC(F)F)C2=O)cc1F | 97 |
| O=C1c2ccnc(-c3ccc(F)cc3OCC3(F)COC3)c2CN1c1ccc(OC(F)F)cc1 | 100 |

----------
Target: glucosylceramide synthase (Homo sapiens, UniProt Q16739)
Construct: made in house; host or cells: Expi293F cells (transient expression, pcDNA3.3-TOPO vector); microsome fraction used as enzyme source
Experiment: Glucosylceramide synthase (GCS) enzyme assay, microsome fraction, C8 glucosylceramide quantified by Rapidfire MS/MS
Assay type: biochemical
Settings: test compound 10 μM; 1.7 μM UDP-glucose, 3 μM C8 ceramide; room temperature 60 min; read-out: GCS enzyme inhibitory rate at 10 μM (%) (% of control)
Procedure: Glucosylceramide Synthase (GCS) Assay In enzyme assay, a microsome fraction obtained by transient expression by Expi293F™ cells (catalog number: A14527, Thermo Fisher Scientific) was used as a glucosylceramide synthase source. […] After the enzymatic reaction, the analysis was performed with Rapidfire MS/MS (API-4000™, SCIEX), and C8 glucosylceramide was quantified to evaluate the inhibitory activity of the test compound against glucosylceramide synthase activity. […]
Below: a set of entries, each annotated with reported inhibition at 10 µM.

| molecule | system tested | u | inhibition at 10 µM |
| --- | --- | --- | --- |
| O=C1c2cncc(-c3ccccc3OCC(F)(F)F)c2CN1c1ccc(F)cc1 | glucosylceramide synthase (Homo sapiens, UniProt Q16739) | % | 86 |
| O=C1c2ccnc(-c3ccc(F)cc3OCC(F)(F)F)c2CN1c1cnn(CC(F)F)c1 | glucosylceramide synthase (Homo sapiens, UniProt Q16739) | % | 95 |
| O=C1c2ccnc(-c3ccc(F)cc3OCC(F)(F)F)c2CN1c1ccc(OC(F)(F)F)cn1 | glucosylceramide synthase (Homo sapiens, UniProt Q16739) | % | 96 |
| O=C1c2ccnc(-c3ccc(F)cc3OCC(F)(F)F)c2CN1c1ccc(C(O)C(F)(F)F)cc1 (racemic) [Example 251] | glucosylceramide synthase (Homo sapiens, UniProt Q16739) | % | 96 |
| CS(=O)(=O)c1ccc(N2Cc3c(ccnc3-c3ccccc3OCC(F)(F)F)C2=O)nc1 | glucosylceramide synthase (Homo sapiens, UniProt Q16739) | % | 91 |
| CC(C)(C)c1cc2c(c(-c3ccccc3OCC(F)(F)F)n1)CN(c1ccc(C(C)(C)O)cc1)C2=O | glucosylceramide synthase (Homo sapiens, UniProt Q16739) | % | 100 |
| Cc1cc2c(c(-c3ccccc3OCC(F)(F)F)n1)CN(c1ccc(OCC(C)(C)O)cc1)C2=O | glucosylceramide synthase (Homo sapiens, UniProt Q16739) | % | 100 |
| COc1ccccc1-c1nccc2c1CN(c1ccc(C(F)(F)F)cn1)C2=O | glucosylceramide synthase (Homo sapiens, UniProt Q16739) | % | 93 |
| Cn1nc(N2Cc3c(ccnc3-c3ccc(F)cc3OCC(F)(F)F)C2=O)cc1C1CC1 | glucosylceramide synthase (Homo sapiens, UniProt Q16739) | % | 51 |
| CC(=O)c1ccc(N2CC3=C(OC[C@H](C)N=C3c3ccccc3OCC(F)(F)F)C2=O)cc1 | glucosylceramide synthase (Homo sapiens, UniProt Q16739) | % | 88 |
| CC(C)(O)c1ccc(N2Cc3c(ccnc3-c3ccccc3OCC(F)(F)F)C2=O)nc1 | glucosylceramide synthase (Homo sapiens, UniProt Q16739) | % | 100 |
| COc1ccccc1-c1nccc2c1CN(c1ccc(OC(F)F)cn1)C2=O | glucosylceramide synthase (Homo sapiens, UniProt Q16739) | % | 93 |
| CC(O)c1cc2c(c(-c3ccccc3OCC(F)(F)F)n1)CN(c1ccc(OCC(F)(F)F)cc1)C2=O (racemic) | glucosylceramide synthase (Homo sapiens, UniProt Q16739) | % | 100 |
| O=C1c2ccnc(-c3ccc(F)cc3OCC(F)(F)F)c2CN1c1ccc(C(O)C(F)(F)F)c(F)c1 (racemic) | glucosylceramide synthase (Homo sapiens, UniProt Q16739) | % | 88 |
| O=C1c2ccnc(-c3ccc(F)cc3OCC(F)(F)F)c2CN1c1ccc(C(F)(F)F)cn1 | glucosylceramide synthase (Homo sapiens, UniProt Q16739) | % | 85 |
| CC(C)(O)c1ccc(N2Cc3c(cc(C4CCCOC4)nc3-c3ccccc3OCC(F)(F)F)C2=O)cc1 (racemic) | glucosylceramide synthase (Homo sapiens, UniProt Q16739) | % | 101 |

----------
Target: glucosylceramide synthase (Homo sapiens, UniProt Q16739)
Construct: made in house; host or cells: Expi293F cells (transient expression, pcDNA3.3-TOPO vector); microsome fraction used as enzyme source
Assay: Glucosylceramide synthase (GCS) enzyme assay, microsome fraction, C8 glucosylceramide quantified by Rapidfire MS/MS
Format: biochemical
Conditions: test compound 10 μM; 1.7 μM UDP-glucose, 3 μM C8 ceramide; room temperature 60 min; read-out: GCS enzyme inhibitory rate at 10 μM (%) (% of control)
Parameter inhibition at 10 µM: see the listing below.

| compound | inhibition at 10 µM [%] |
| --- | --- |
| O=C1c2ccnc(-c3ccncc3OCC(F)(F)F)c2CN1c1ccc(C2(O)CC(F)(F)C2)c(F)c1 [Example 287] | 99 |
| O=C1c2ccnc(-c3ccc(F)cc3OCC(F)(F)F)c2CN1c1ccc(S(=O)(=O)C(F)F)cc1 [Example 139] | 96 |
| O=C1c2cc(C3CCCOC3)nc(-c3ccc(F)cc3OCC(F)(F)F)c2CN1c1ccc(F)cc1 (racemic) [Example 386] | 99 |
| CC(C)n1cc(N2Cc3c(ccnc3-c3ccc(F)cc3OCC(F)(F)F)C2=O)cn1 [Example 97] | 96 |
| COc1cnccc1-c1nccc2c1CN(c1ccc(F)cc1)C2 [Example 170] | 88 |
| O=C(c1ccc(N2Cc3c(ccnc3-c3ccc(F)cc3OCC(F)(F)F)C2=O)cc1)N1CCOCC1 [Example 152] | 90 |
| O=C1c2ccnc(-c3ccc(F)cc3OCC(F)(F)F)c2CN1c1ccc(OCC(F)F)nc1 [Example 131] | 87 |
| O=C(c1ccc(N2Cc3c(ccnc3-c3ccc(F)cc3OCC(F)(F)F)C2=O)cc1)N1CCC(F)(F)CC1 [Example 182] | 99 |
| CS(=O)(=O)c1ccc(N2Cc3cnn(-c4ccccc4OCC(F)(F)F)c3C2)nc1 [Example 215] | 93 |
| CCOC(=O)c1ccc(-c2nccc3c2CN(c2ccc(F)cc2)C3=O)c(OC)c1 [Example 48] | 70 |
| O=C(c1ccc(N2Cc3c(ccnc3-c3ccc(F)cc3OCC(F)(F)F)C2=O)cc1)N1CCCC1 [Example 180] | 92 |
| CC(C)(O)Cc1ccc(N2Cc3c(ccnc3-c3ccc(F)cc3OCC(F)(F)F)C2=O)cc1 [Example 305] | 99 |
| C#CCCC1(CCOc2ccc(N3Cc4c(ccnc4-c4ccccc4OCC(F)(F)F)C3=O)cc2)N=N1 [Example 349] | 100 |
| CS(=O)(=O)c1ccc(N2Cc3cnn(-c4ccccc4OCC(F)(F)F)c3C2)cc1 [Example 207] | 99 |
| CC(C)(O)c1ccc(N2Cc3c(ccnc3-c3ccc(F)cc3OCC(F)(F)F)C2=O)nc1 [Example 234] | 99 |
| O=C1c2ccnc(-c3ccc(F)cc3OCC(F)(F)F)c2CN1c1ccc(C2(F)COC2)cc1 [Example 226] | 96 |
| O=C1c2ccnc(-c3ccccc3OC(F)F)c2CN1c1ccc(F)cn1 [Example 63] | 96 |
| N#Cc1ccc(N2Cc3c(ccnc3-c3ccc(F)cc3OCC(F)(F)F)C2=O)nc1 [Example 71] | 99 |
| Cc1cc2c(n(-c3ccccc3OCC(F)(F)F)c1=O)CN(c1ccc(C(C)(C)O)cc1)C2=O [Example 337] | 98 |
| Cc1cc(N2Cc3c(ccnc3-c3ccc(F)cc3OCC(F)(F)F)C2=O)nn1C [Example 82] | 88 |
| CC(C)(O)Cc1ccc(N2Cc3c(ccnc3-c3ccncc3OCC(F)(F)F)C2=O)cc1 [Example 307] | 91 |
| COC(=O)c1ccc(N2CC3=C(OC(C)CN=C3c3ccccc3OCC(F)(F)F)C2=O)cc1 (racemic) [Example 332] | 96 |
| O=C1c2ccnc(-c3ccc(F)cc3OCC(F)(F)F)c2CN1c1ncc(OC(F)F)cn1 [Example 99] | 92 |
| O=C1c2ccnc(-c3ccc(F)cc3OCC(F)(F)F)c2CN1c1ccc(C2(O)CCOC2)cn1 (racemic) [Example 256] | 97 |
| O=C1c2ccnc(-c3ccc(F)cc3OCC(F)(F)F)c2CN1c1cnn(CC2CC2)c1 [Example 153] | 98 |
| O=C1c2ccnc(-c3ccccc3OCC(F)(F)F)c2CN1c1ccc(C(O)(C(F)F)C(F)F)cc1 [Example 246] | 100 |
| NC(=O)c1ccc(-c2nccc3c2CN(c2ccc(F)cc2)C3=O)c(OC(F)F)c1 [Example 40] | 54 |
| CC(C)(O)COc1ccc(N2Cc3c(ccnc3-c3ccccc3OCC(F)F)C2=O)nc1 [Example 306] | 99 |
| O=C1c2ccnc(-c3ccccc3OC(F)F)c2CN1c1ccc(OC(F)F)cn1 [Example 64] | 96 |
| O=C1c2ccnc(-c3ccc(F)cc3OCc3ccccc3)c2CN1c1ccc(OC(F)F)nc1 [Example 101] | 79 |
| O=C1c2ccnc(-c3ccc(F)cc3OCC(F)(F)F)c2CN1c1ccc(C(O)(C(F)F)C(F)F)cc1 [Example 245] | 100 |
| COC1(c2ccc(N3Cc4c(ccnc4-c4ccc(F)cc4OCC(F)(F)F)C3=O)cc2)COC1 [Example 178] | 98 |

These measurements were taken from patent US12528802B2.
